# Test system: NCI-H522 lung
# Assay Method Text: NCI tumour cell line growth inhibition, 48 h; in the data active = GI50 below about 0.43 µM; inactive = the rest
Respond using exactly one of the listed classes: Y (active), N (inactive)

Use these answered entries as a reference point.
INSERT INTO results (compound, class_name) VALUES
  ('CCC(=O)O[C@H]1CC[C@H]2[C@@H]3CC[C@H]4CC(=O)[C@H](C)C[C@]4(C)[C@H]3CC[C@]12C', 'N'),
  ('COc1cc(CCN)c2c(c1OC)SSSSS2', 'Y'),
  ('CCCCCCCNc1nc(C(=O)OCC)ncc1-c1ccc(C(F)(F)F)cc1', 'N'),
  ('COc1ccccc1/C=C/[N+](=O)[O-]', 'N');

Returns: the outcome recorded for COc1ccc(Nc2ncc(Br)c(NCCCNC(=O)C3CCC3)n2)cc1 in this assay.
N

Returns: the outcome recorded for Cc1cc(/C=C\c2ccc3ccccc3[n+]2C)c(O)c2ncccc12 in this assay.
N

Returns: the outcome recorded for CCCc1c(CC)c(=N)c2ccccc2n1C in this assay.
N

Returns: the outcome recorded for O=C(/C=C/C12c3ccccc3C(c3ccccc31)C1C(=O)N(c3ccccc3)C(=O)C12)c1ccccc1 (stereo unspecified) in this assay.
N

Returns: the outcome recorded for CN(C)c1ccc([O-])cc1.CN(C)c1ccc([O-])cc1.CN(C)c1ccc([O-])cc1.CN(C)c1ccc([O-])cc1.[Ti+4] in this assay.
N

Returns: the outcome recorded for COc1ccc(C2SCC(=O)N2NC(=O)C(O)c2ccccc2)cc1OC (stereo unspecified) in this assay.
N

Returns: the outcome recorded for C1C[OH+]CC[OH+]CCNCC[OH+]CC[OH+]CCN1.[Cl-].[Pt+4] in this assay.
N
